# assay procedure: NCI Yeast Anticancer Drug Screen. Data for the mec2-1 strain (AID 157)
# assay context: S. cerevisiae mec2-1 strain, at 50.0 µM, stronger effect = higher value
About 79,000 compounds went through this panel and 15% of them were active in at least one assay; those are over-represented in the sample as a whole. Activity calls are given as the source filed them. Rule as the data show it: active = growth inhibition above about 70%; inactive = the rest.
growth inhibition reference

Solved cases (5 shown):
{"molecule": "O=S(=O)(NC1CCC(CC2CCCCC2)CC1)c1ccccc1 (centres undefined)", "growth inhibition": "42% (inactive)"}
{"molecule": "C1CCCCC2(CCCCCCCCC3(CCC1)OCCO3)OCCO2", "growth inhibition": "-21.2% (inactive)"}
{"molecule": "CCN(CC)/N=C\\c1c2ccccc2cc2ccccc12", "growth inhibition": "11.2% (inactive)"}
{"molecule": "CCCCCOc1ccc(/C=C\\C(=O)O)cc1", "growth inhibition": "2.55% (inactive)"}
{"molecule": "CC(C)OC(=O)Nc1ccc(F)c(F)c1", "growth inhibition": "-16.8% (inactive)"}

Look at this molecule and give its reported growth inhibition. CCN(CC)C(=O)c1ccc[n+](Cc2ccc(Cl)c(Cl)c2)c1
-8.25% (inactive)

Look at this molecule and give its reported growth inhibition. N#CCCCCCCCCCC#N
-36% (inactive)

Look at this molecule and give its reported growth inhibition. C=CCC(C#N)C1=CCCCC1 (centres undefined)
-26.6% (inactive)

* * *

# assay procedure: NCI Yeast Anticancer Drug Screen. Data for the sgs1 mgt1 strain (AID 161);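 also: 0% = growth of cultures given vehicle only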
# assay context: S. cerevisiae sgs1 mgt1 strain, at 50.0 µM, stronger effect = higher value
This is part of a sample that, as a whole, favours compounds with a hit. Of some 79,000 tested, about 15% had one in any assay.
endpoint: growth inhibition (%)
Your answer is read as %, so omit the unit and give the number.

Solved cases (3 shown):
{"compound": "CC(C)(C)CC(C)(C)c1ccc(OCCOc2ccc(C(=O)Nc3ccc([N+](=O)[O-])cc3)cc2)cc1", "endpoint": "growth inhibition", "observed result": 42.5}
{"compound": "CC1=NC2(CCCCC2)N(Cl)C(=O)C1SC#N (stereo not given)", "endpoint": "growth inhibition", "observed result": -23.8}
{"compound": "O=C(Nc1cccc(C(F)(F)F)c1)OCCOc1ccc(Cl)cc1", "endpoint": "growth inhibition", "observed result": 99.2}

Look at this compound and give its reported growth inhibition. COc1ccc(NC(=O)NCc2ccc(C)c(C)c2)cc1
22.3

Look at this compound and give its reported growth inhibition. Cc1cc(=O)c2c(ccc3c(=O)cc(C)[nH]c32)[nH]1
-14.3

* * *

growth inhibition reference
# assay procedure: NCI Yeast Anticancer Drug Screen. Data for the mec2-1 strain (AID 157)
# assay context: S. cerevisiae mec2-1 strain, at 50.0 µM, stronger effect = higher value
# Procedure: Growth inhibition of yeast strains with defined genetic alterations is measured as a screen for potential anti-cancer activity. Selected strains with alterations in DNA damage repair or cell cycle control were exposed to compounds and growth inhibition was measured relative to vehicle treated controls. The strain used in this assay is mec2-1
The panel holds about 79,000 compounds, 15% with a hit somewhere; the sample as a whole holds those more often.
Your answer is read as %, so omit the unit and give the number.

{"compound": "NC(=O)c1cc([N+](=O)[O-])cnc1Sc1ncccn1", "growth inhibition / %": 14.9}
{"compound": "CCOC(=O)NC(C(N)=O)C(N)=O", "growth inhibition / %": 15.8}
{"compound": "CCOc1ccc(Nc2ncnc3sc4c(c23)CCCC4)cc1", "growth inhibition / %": -1}
{"compound": "NC(=NC1CCCCC1)/N=C(/N)Nc1ccc(Cl)cc1", "growth inhibition / %": 0.2}
{"compound": "Cc1cccc(CNc2ccc(S(=O)(=O)c3ccc(NCc4cccc(C)n4)cc3)cc2)n1", "growth inhibition / %": 4.35}

Look at this compound and give its reported growth inhibition. Nc1cccc(C(=O)O)c1C(=O)O
15.7

Look at this compound and give its reported growth inhibition. O=C(OCC1OC=C(OC(=O)c2ccccc2)C1OC(=O)c1ccccc1)c1ccccc1 (stereo unspecified)
11.7

Look at this compound and give its reported growth inhibition. N#CC(C#N)=CNc1cccc(Cl)c1
9.8

Look at this compound and give its reported growth inhibition. NC(=O)N/N=C(/CC1C(=O)Oc2ccccc21)c1ccccc1O (stereo unspecified)
-4.7
